The values you see were collected from patent US20130078237A1.

- target.desc: T1, human CD27L on the surface of cells (human, UniProt P32970 1-193)
- T1 construct: native on Raji and 786-0 cells, recombinant on 293 cells; also called CD70; TNFSF7
- T1 sequence: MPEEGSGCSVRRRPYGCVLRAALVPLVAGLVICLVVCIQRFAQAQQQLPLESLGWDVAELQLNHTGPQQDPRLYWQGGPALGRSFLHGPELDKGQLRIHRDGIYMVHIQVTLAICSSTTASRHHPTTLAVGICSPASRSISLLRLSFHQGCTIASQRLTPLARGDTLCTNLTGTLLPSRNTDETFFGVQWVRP
- assay.info: Gyros, native human CD27L on Raji cells
Entries and their Kd values follow.

- binder: "Ab4 (antibody, human IgG1, kappa, V domains shown, Fully human IgG1; also called A4; unconjugated parental Ab4) VH: QVQLVESGGGVVQPGRSLRLSCAASGFTFSNYGIHWVRQAPGKGLEWVAVIWYDGSNKYYADSVKGRFTISRDNSKNTLYLQMNSLRAEDTAVYYCARDGGYSGYDSGFDYWGQGTLVTVSS VL: DIVMTQSPLSLPVTPGEPASISCRSSQSLLNSNGYNYLDWYLQKPGQSPQFLIYLGSYRASGVPDRFSGSGSGTDFTLRISRVEAEDVGVYYCIQTLQTPFTFGPGTKVDIKR"
  Kd: "0.014 nM"
- binder: "Ab8 (antibody, human IgG1, kappa, V domains shown, also called A8; unconjugated Ab8) VH: QVQLVESGGGVVQPGRSLRLSCAASGFTFSSYGMHWVRQAPGKGLEWVAVIWYDGSDKYFADSVKGRFTISRDNSKNTLYLQMNSLRAEDTAVYYCARDGIAGARYVYFDYWGQGTLVTVSS VL: DIQMTQSPSSLSASVGDRVTITCRASQGISNYLAWFQQKPGKAPKSLIYAASSLQGGVPSKFSGSGSGTDFTLTISSLQPEDFATYYCQQYYNYPFTFGPGTTVDIKR"
  Kd: "0.078 nM"
- binder: "Ab8-MCC-DM1 (antibody, human IgG1, kappa, V domains shown, also called Ab8 antibody drug conjugate; conjugated Ab8) VH: QVQLVESGGGVVQPGRSLRLSCAASGFTFSSYGMHWVRQAPGKGLEWVAVIWYDGSDKYFADSVKGRFTISRDNSKNTLYLQMNSLRAEDTAVYYCARDGIAGARYVYFDYWGQGTLVTVSS VL: DIQMTQSPSSLSASVGDRVTITCRASQGISNYLAWFQQKPGKAPKSLIYAASSLQGGVPSKFSGSGSGTDFTLTISSLQPEDFATYYCQQYYNYPFTFGPGTTVDIKR"
  Kd: "0.077 nM"
- binder: "Ab4-MCC-DM1 (antibody, human IgG1, kappa, V domains shown, DM1 linked through MCC (SMCC) to lysine residues; 4.5-5.0 DM1 molecules per antibody on average, sites not given, also called Ab4 antibody drug conjugate; conjugated Ab4) VH: QVQLVESGGGVVQPGRSLRLSCAASGFTFSNYGIHWVRQAPGKGLEWVAVIWYDGSNKYYADSVKGRFTISRDNSKNTLYLQMNSLRAEDTAVYYCARDGGYSGYDSGFDYWGQGTLVTVSS VL: DIVMTQSPLSLPVTPGEPASISCRSSQSLLNSNGYNYLDWYLQKPGQSPQFLIYLGSYRASGVPDRFSGSGSGTDFTLRISRVEAEDVGVYYCIQTLQTPFTFGPGTKVDIKR"
  Kd: "0.023 nM"
